System: murine TTC39C mRNA
Experiment: Antisense inhibition of mouse TTC39C in mouse primary hepatocytes, single dose
Type: cell-based
Conditions: 8,000 nM antisense oligonucleotide, electroporation, approximately 24 hours, TTC39C mRNA by real-time PCR (RTS3266), relative to untreated control cells
Oligonucleotides are written 5' to 3', each unit as a sugar letter and its base; * is a phosphorothioate linkage, no mark a phosphodiester; rarer units and linkages stand in square brackets, end groups in braces. Plain capitals give the bases only. e = 2'-O-(2-methoxyethyl) (MOE); [5mC] = 5-methylcytosine; d = 2'-deoxy (DNA)
measurement type: % inhibition (%)

substance	measurement type	meas value
ISIS 474604: 5-10-5 MOE gapmer antisense oligonucleotide targeting murine TTC39C (antisense eT*eG*eT*e[5mC]*eA*d[5mC]*dT*dG*d[5mC]*d[5mC]*dG*dT*d[5mC]*d[5mC]*dA*eA*eA*eG*e[5mC]*eA)	% inhibition	97
ISIS 474532: 5-10-5 MOE gapmer antisense oligonucleotide targeting murine TTC39C (antisense eG*eT*eT*eG*eT*dG*d[5mC]*d[5mC]*d[5mC]*d[5mC]*dA*dT*d[5mC]*d[5mC]*dA*e[5mC]*eA*eT*e[5mC]*eA)	% inhibition	99
ISIS 474518: 5-10-5 MOE gapmer antisense oligonucleotide targeting murine TTC39C (antisense eG*eT*eA*eG*eT*d[5mC]*dT*dT*dT*dA*dA*dG*dT*d[5mC]*dA*eT*e[5mC]*eG*e[5mC]*eA)	% inhibition	96
ISIS 474595: 5-10-5 MOE gapmer antisense oligonucleotide targeting murine TTC39C (antisense eG*eT*e[5mC]*eA*eT*d[5mC]*dG*d[5mC]*dA*d[5mC]*dG*d[5mC]*d[5mC]*dA*dA*e[5mC]*eT*eG*e[5mC]*eA)	% inhibition	97
ISIS 474617: 5-10-5 MOE gapmer antisense oligonucleotide targeting murine TTC39C (antisense eA*eG*eT*eT*e[5mC]*d[5mC]*d[5mC]*dT*dT*dA*dG*dG*dG*dA*dG*eG*e[5mC]*e[5mC]*eA*eG)	% inhibition	94
ISIS 474600: 5-10-5 MOE gapmer antisense oligonucleotide targeting murine TTC39C (antisense e[5mC]*e[5mC]*eA*eA*eG*dG*dG*d[5mC]*dT*d[5mC]*dT*dT*d[5mC]*d[5mC]*dG*eT*e[5mC]*eA*eG*e[5mC])	% inhibition	90
ISIS 474598: 5-10-5 MOE gapmer antisense oligonucleotide targeting murine TTC39C (antisense e[5mC]*e[5mC]*e[5mC]*eA*e[5mC]*d[5mC]*dT*dT*dT*dT*dA*dT*dG*dT*dA*eG*eG*e[5mC]*e[5mC]*eG)	% inhibition	94
ISIS 474523: 5-10-5 MOE gapmer antisense oligonucleotide targeting murine TTC39C (antisense eG*eG*eT*e[5mC]*eA*d[5mC]*d[5mC]*d[5mC]*d[5mC]*dT*dT*d[5mC]*dG*dG*d[5mC]*e[5mC]*eA*e[5mC]*eA*eA)	% inhibition	98
ISIS 474629: 5-10-5 MOE gapmer antisense oligonucleotide targeting murine TTC39C (antisense eG*eA*eT*e[5mC]*eA*d[5mC]*dT*dG*d[5mC]*d[5mC]*dG*dT*d[5mC]*d[5mC]*dA*eA*eA*eG*e[5mC]*eA)	% inhibition	93
ISIS 474516: 5-10-5 MOE gapmer antisense oligonucleotide targeting murine TTC39C (antisense eT*eT*eA*eG*eT*dG*dG*dA*d[5mC]*dT*dA*dT*dG*dA*dT*eT*eT*e[5mC]*eT*eG)	% inhibition	94
ISIS 474592: 5-10-5 MOE gapmer antisense oligonucleotide targeting murine TTC39C (antisense eG*eA*eA*eG*e[5mC]*dA*dT*dA*dT*dT*dG*dA*dT*dG*d[5mC]*e[5mC]*eA*eG*e[5mC]*e[5mC])	% inhibition	93
ISIS 474662: 5-10-5 MOE gapmer antisense oligonucleotide targeting murine TTC39C (antisense eG*eG*eA*eT*eT*dT*d[5mC]*d[5mC]*dG*dG*dG*d[5mC]*dA*dT*d[5mC]*eA*eA*e[5mC]*e[5mC]*eT)	% inhibition	95
ISIS 474599: 5-10-5 MOE gapmer antisense oligonucleotide targeting murine TTC39C (antisense e[5mC]*eG*eT*eT*eG*dA*dT*dG*dT*d[5mC]*d[5mC]*dA*d[5mC]*dA*dT*eA*eG*e[5mC]*eA*e[5mC])	% inhibition	92
ISIS 474615: 5-10-5 MOE gapmer antisense oligonucleotide targeting murine TTC39C (antisense eG*eT*eA*e[5mC]*eG*dA*dG*dT*dT*dA*d[5mC]*dT*d[5mC]*dT*dG*e[5mC]*e[5mC]*eG*eA*e[5mC])	% inhibition	96
ISIS 474607: 5-10-5 MOE gapmer antisense oligonucleotide targeting murine TTC39C (antisense eT*e[5mC]*eA*eA*eT*d[5mC]*dA*dT*dG*d[5mC]*dT*dG*d[5mC]*dA*d[5mC]*e[5mC]*eA*eG*e[5mC]*e[5mC])	% inhibition	98
